# tgt: T1, biotin-labeled CD47 extracellular domain protein (CD47-ECD) (UniProt Q08722 19-139, limits assumed, biotin-labeled (sites not given))
# T1 construct: extracellular domain; also called CD47 protein
# assay.comment: blocking ELISA, biotin-CD47-ECD on coated SIRPα-hFc; Ab 0.32 nM
Each record here notes measured OD450 nm of CD47 bound to SIRPα.
observed.property: OD450 nm of CD47 bound to SIRPα

{"columns": ["binder", "observed.property", "quantitative.readout"],
 "data": [
  ["132D1E5 (antibody, V domains shown, Murine hybridoma antibody purified on protein G) VH: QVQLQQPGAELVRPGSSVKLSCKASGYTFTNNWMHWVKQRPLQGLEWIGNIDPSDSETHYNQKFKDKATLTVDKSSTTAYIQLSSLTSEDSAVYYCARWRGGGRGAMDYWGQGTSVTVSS VL: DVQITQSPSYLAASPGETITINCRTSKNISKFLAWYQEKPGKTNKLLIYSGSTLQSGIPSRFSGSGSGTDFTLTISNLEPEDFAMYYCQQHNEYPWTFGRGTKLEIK", "OD450 nm of CD47 bound to SIRPα", 0.79],
  ["95E2D10 (antibody, V domains shown, Murine hybridoma antibody purified on protein G) VH: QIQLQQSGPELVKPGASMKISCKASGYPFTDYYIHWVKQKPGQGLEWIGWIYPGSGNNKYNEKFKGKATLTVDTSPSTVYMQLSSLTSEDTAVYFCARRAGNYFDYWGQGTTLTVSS VL: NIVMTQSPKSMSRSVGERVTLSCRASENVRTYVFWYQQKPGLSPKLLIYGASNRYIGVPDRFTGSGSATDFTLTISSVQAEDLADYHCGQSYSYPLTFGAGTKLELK", "OD450 nm of CD47 bound to SIRPα", 2],
  ["4D10B11 (antibody, V domains shown, Murine hybridoma antibody purified on protein G) VH: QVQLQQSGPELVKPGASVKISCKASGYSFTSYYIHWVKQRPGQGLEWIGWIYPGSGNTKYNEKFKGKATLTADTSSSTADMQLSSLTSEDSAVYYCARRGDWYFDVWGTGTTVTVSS VL: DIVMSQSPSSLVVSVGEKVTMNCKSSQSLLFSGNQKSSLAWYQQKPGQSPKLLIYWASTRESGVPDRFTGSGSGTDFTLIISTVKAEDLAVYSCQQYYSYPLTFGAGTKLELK", "OD450 nm of CD47 bound to SIRPα", 0.77],
  ["20H4G5 (antibody, V domains shown, Murine hybridoma antibody purified on protein G) VH: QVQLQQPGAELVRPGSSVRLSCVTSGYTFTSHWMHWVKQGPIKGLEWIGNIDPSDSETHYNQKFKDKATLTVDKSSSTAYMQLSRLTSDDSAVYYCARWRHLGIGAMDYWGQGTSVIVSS VL: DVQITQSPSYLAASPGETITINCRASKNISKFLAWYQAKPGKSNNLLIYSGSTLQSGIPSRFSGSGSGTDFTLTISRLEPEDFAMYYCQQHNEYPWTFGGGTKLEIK", "OD450 nm of CD47 bound to SIRPα", 0.68]
]}

// provenance: patent US20220017615A1
